Data origin: patent US9707200B2

target: PPARα (Homo sapiens, UniProt Q07869); construct: expressed in transfected cells; host or cells: CV-1 (African green monkey kidney); test: PPARα ligand activity, GAL4-PPARα reporter luciferase assay in CV-1 cells; assay type: cell-based; settings: 24 hr incubation, KetoA and HYA each at 30 μM, other fatty acids by a similar method
Sequence (Q07869 239-466 limits assumed): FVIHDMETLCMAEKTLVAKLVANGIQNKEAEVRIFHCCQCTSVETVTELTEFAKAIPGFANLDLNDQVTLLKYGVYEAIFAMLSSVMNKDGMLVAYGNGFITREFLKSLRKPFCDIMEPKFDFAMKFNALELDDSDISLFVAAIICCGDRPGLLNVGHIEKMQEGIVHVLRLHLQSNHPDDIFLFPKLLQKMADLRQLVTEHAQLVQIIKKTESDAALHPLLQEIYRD
Test Readout: PPARα agonist activity (relative luciferase activity)

Please supply the value of reported PPARα agonist activity (relative luciferase activity) for the item CCCCCCC(O)CC(O)CCCCCCCCC(=O)O (stereo not shown) [rHYA, 10,12-dihydroxyoctadecanoic acid]
PPARα agonist activity

Specify reported PPARα agonist activity (relative luciferase activity) for the molecule shown: CCCCCCC(O)CCCCCCCCCCC(=O)O (stereo not shown) [rHYB, 12-hydroxyoctadecanoic acid]
PPARα agonist activity
